Measured percent of parent accompanies every entry in the list below.
B1: GST-tagged Sch9 (GST-Sch9) [S. cerevisiae] / Gap1 peptide 222-GVKGYGEAEFVFSFI-236 [S. cerevisiae] (parent complex)
chain 1: MMNFFTSKSSNQDTGFSSQHQHPNGQNNGNNNSSTAGNDNGYPCKLVSSGPCASSNNGALFTNFTLQTATPTTAISQDLYAMGTTGITSENALFQMKSMNNGISSVNNNNSNTPTIITTSQEETNAGNVHGDTGGNSLQNSEDDNFSSSSTTKCLLSSTSSLSINQREAAAAAYGPDTDIPRGKLEVTIIEARDLVTRSKDSQPYVVCTFESSEFISNGPESLGAINNNNNNNNNNQHNQNQHINNNNENTNPDAASQHHNNNSGWNGSQLPSIKEHLKKKPLYTHRSSSQLDQLNSCSSVTDPSKRSSNSSSGSSNGPKNDSSHPIWHHKTTFDVLGSHSELDISVYDAAHDHMFLGQVRLYPMIHNLAHASQHQWHSLKPRVIDEVVSGDILIKWTYKQTKKRHYGPQDFEVLRLLGKGTFGQVYQVKKKDTQRIYAMKVLSKKVIVKKNEIAHTIGERNILVTTASKSSPFIVGLKFSFQTPTDLYLVTDYMSGGELFWHLQKEGRFSEDRAKFYIAELVLALEHLHDNDIVYRDLKPENILLDANGNIALCDFGLSKADLKDRTNTFCGTTEYLAPELLLDETGYTKMVDFWSLGVLIFEMCCGWSPFFAENNQKMYQKIAFGKVKFPRDVLSQEGRSFVKGLLNRNPKHRLGAIDDGRELRAHPFFADIDWEALKQKKIPPPFKPHLVSETDTSNFDPEFTTASTSYMNKHQPMMTATPLSPAMQAKFAGFTFVDESAIDEHVNNNRKFLQNSYFMEPGSFIPGNPNLPPDEDVIDDDGDEDINDGFNQEKNMNNSHSQMDFDGDQHMDDEFVSGRFEI
chain 2: GVKGYGEAEFVFSFI

- Variants of: B1
- Experimental protocol: substitution peptide microarray; 100 or 500 µg/ml GST-Sch9; parent: 100; read off a plot
Property label: percent of parent

[[record]]
mutant_id = "chain 2 G6F"
obs_value = "~330 % of wild type peptide"

[[record]]
mutant_id = "chain 2 I15E"
obs_value = "~150 % of wild type peptide"

[[record]]
mutant_id = "chain 2 S13C"
obs_value = "~240 % of wild type peptide"

[[record]]
mutant_id = "chain 2 G1F"
obs_value = "~140 % of wild type peptide"

